Hello, the source for this data is paper PMC11907993, in case you need it.

Target: SMAD4 MH1 (human (Fig. 1 legend), UniProt Q13485 18-142)
Sequence (Q13485 18-142): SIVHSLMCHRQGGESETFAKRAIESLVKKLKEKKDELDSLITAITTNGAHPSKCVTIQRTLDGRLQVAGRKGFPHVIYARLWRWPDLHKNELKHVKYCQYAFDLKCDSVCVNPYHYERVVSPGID
Assay: EMSA; EMSA: 7.5 nM Cy5-dsDNA, 200 mM Tris pH 7.2, 100 mM NaCl, 2 mM TCEP, 15 min on ice; 6% PAGE in TG buffer, 4 °C; Hill fit, n = 2
Conditions: protein: recombinant; tags: N-terminal His tag cleaved (TEV or 3C); label: 5'-Cy5
Each entry below carries its recorded Kd.
Could you give me the number in nM? Just the number is fine.

[
  {
    "binder": "SBE+ (dsDNA) DNA 1: ATATGTCTGATAT DNA 2: ATATCAGACATAT",
    "Kd, nM": 919
  },
  {
    "binder": "npGC-SBE+ (dsDNA) DNA 1: ATATGGCTCCATAT DNA 2: ATATGGAGCCATAT",
    "Kd, nM": 1340
  }
]

Now examine the next entry.
**Query** Reported Kd for pGC-SBE+ (dsDNA) DNA 1: ATATGGCGCCATAT DNA 2: ATATGGCGCCATAT : what is it?
**Result** 886
